Non-standard residues stand in square brackets, D forms with d. Residues, ends and D or L forms follow the SMILES beside them. ξ: configuration not given here. *: point of attachment. ξNMe2Val = CC(C)C(C(=O)*)N(C)C; NMeV = CN[CH](C(=O)O)C(C)C; NHBn = c1ccc(CN*)cc1
Form: system (recombinant CpLDH protein (Cryptosporidium parvum, UniProt Q9GT92, F198L/K295E/R251K)), quantity (MEAN CpLDH INHIBITION (%)), values below.
// note: answer is a bare numeric in %

Print recombinant CpLDH protein (Cryptosporidium parvum, UniProt Q9GT92, F198L/K295E/R251K) MEAN CpLDH INHIBITION (%) for Cc1c(N=Cc2ccc(N(CCC#N)CCC#N)cc2)c(=O)n(-c2ccccc2)n1C [NSC620280] .
-51.47

Report MEAN CpLDH INHIBITION (%) on recombinant CpLDH protein (Cryptosporidium parvum, UniProt Q9GT92, F198L/K295E/R251K) for this entry: Cn1cnc([N+](=O)[O-])c1Sc1nnnn1-c1ccccc1 [NSC631152]
-45.89

Would you please give the reported MEAN CpLDH INHIBITION (%) of O=C1c2ccccc2C(=O)C1C(c1ccc([N+](=O)[O-])cc1)C1C(=O)c2ccccc2C1=O [NSC643148] with recombinant CpLDH protein (Cryptosporidium parvum, UniProt Q9GT92, F198L/K295E/R251K)?
-12.75

Give recombinant CpLDH protein (Cryptosporidium parvum, UniProt Q9GT92, F198L/K295E/R251K) MEAN CpLDH INHIBITION (%) for the following compound: CCOC(=O)/C=C/c1c(C)[nH]c(=O)[nH]c1=O [NSC159935]
-51.31

Lab note: recombinant CpLDH protein (Cryptosporidium parvum, UniProt Q9GT92, F198L/K295E/R251K) assay, enter MEAN CpLDH INHIBITION (%) for CCCCCCCCCCCCCCCC[N+](C)(C)Cc1ccc(F)cc1.[Cl-] [NSC693172] here
-0.60

# return MEAN CpLDH INHIBITION (%) of CC(C)C(NC(=O)C(C(C)C)N(C)C)C(=O)N(C)C(C(=O)N1CCCC1C(=O)N1CCCC1C(=O)NCc1ccccc1)C(C)C.Cl (stereo not shown) [NSC669356] (ξNMe2Val-V[NMeV]PP-NHBn; configuration not given here) (system: recombinant CpLDH protein (Cryptosporidium parvum, UniProt Q9GT92, F198L/K295E/R251K))
-120.43

With recombinant CpLDH protein (Cryptosporidium parvum, UniProt Q9GT92, F198L/K295E/R251K) as the test system, provide measured MEAN CpLDH INHIBITION (%) for this compound: [N-]=[N+]=NC1=NNC2(C(=O)N1)c1ccccc1-c1ccccc12 [NSC666168]
-17.65

System recombinant CpLDH protein (Cryptosporidium parvum, UniProt Q9GT92, F198L/K295E/R251K). Read-out MEAN CpLDH INHIBITION (%). Item CC(C)(C)C1CCC2(CC1)CCN(CCCN1CCOCC1)CC2 [NSC90829] . Report value.
-2.93

Provide recombinant CpLDH protein (Cryptosporidium parvum, UniProt Q9GT92, F198L/K295E/R251K) MEAN CpLDH INHIBITION (%) reading for Cc1cccc(C)c1NC(=O)C(=O)C(c1ccccc1Cl)S(=O)(=O)Cc1ccccc1Cl (stereo not shown) [NSC657722] .
-170.05

Give MEAN CpLDH INHIBITION (%) for this entry on recombinant CpLDH protein (Cryptosporidium parvum, UniProt Q9GT92, F198L/K295E/R251K): O=C1N[C@@H]2C(=C[C@H](O)[C@@H](O)[C@H]2O)c2cc3c(c(O)c21)OCO3 [NSC266535]
-18.25
